All figures here come from paper PMC8348300.

target.system: human alpha-thrombin (Homo sapiens, UniProt P00734;P00734 328-363;364-622)
assay.procedure: SPR; 10 mM KCl; text of 3.2 gives 97.5 nM; SPR (OpenSPR, immobilized thrombin): PBS, 0.005% Tween 20, 10 mM KCl, pH 7.4; TBA 1-16 uM (1-8 uM per Results), annealed 95 C 5 min then cooled to room temperat

{"binder": "GGTTGGTGTGGTTGG (structured_DNA, T13: C5 NHS-carboxy-dT) [13NHT]", "Kd": "99.7 nM"}
